The entries below come with measured pKd values attached.
testSystem: T1, human PD-1 (soluble PD-1 protein, R&D Systems) (human, UniProt Q15116 25-170, limits assumed)
T1 construct: the kinetics paragraphs say only 'PD-1' / 'antigen'; also called hPD-1; soluble PD-1 immunogen
T1 sequence (Q15116 25-170 limits assumed): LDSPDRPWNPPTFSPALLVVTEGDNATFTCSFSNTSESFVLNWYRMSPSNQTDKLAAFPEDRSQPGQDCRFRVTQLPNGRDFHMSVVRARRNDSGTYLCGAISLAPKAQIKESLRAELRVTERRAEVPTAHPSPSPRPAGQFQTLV
protocolText: BLI, mAb on AHC biosensor, PD-1 as analyte
pKd: −log10 of the molar value.
assayEndpoint: pKd

[[record]]
binder = "A20 (antibody, V domains shown, Tested as full-length mAb expressed in CHO cells; also called antibody 20; L20H20) VH: EVQLVESGGGLVQPGGSLRLSCAASGFTFSFYDMHWVRQAKGKGLEWVSAIGTAGDTYYPGSVKGRFTISRENAKNSLYLQMNSLRAGDTAVYYCARGYCSTTNCFADYFDYWGQGTLVTVSS VL: DIQLTQSPSFLSASVGDRVTITCRASQGISNYLAWYQQKPGKAPKLLIYAASTLQSGVPSRFSGSGSGTEFTLTISSLQPEDFATYYCHQLNSFPLTFGGGTKVEIK"
obsvalue = 6.83

[[record]]
binder = "A21 (antibody, V domains shown, Tested as full-length mAb expressed in CHO cells; also called antibody 21; L21H21) VH: QVQLVQSGAEVKKPGASVKVSCKASGYTFTSYYMHWVRQAPGQGLEWMGIINPSGSSTSYAQKFQGRVTMTRDTSTSTVYMELSSLRSEDTAVYYCARYGVWGSYRSLDYWGQGTLVTVSS VL: AIQMTQSPSSLSASVGDRVTITCRASQGIRNELGWYQQKPGKAPKLLICAASSLQSGVPSRFSGSGSGTDFTLTISSLQPEDFATYYCLQDYIYPYTFGQGTKLEIK"
obsvalue = 7.89

[[record]]
binder = "A19 (antibody, V domains shown, Tested as full-length mAb expressed in CHO cells; also called antibody 19; L19H19) VH: QVQLVESGGGVVQPGRSLRLSCAASGFTFSNYGMYWVRQAPGKGLEWVAVIWYDGSNKYYADSVKGRFTISRDNSKNTLYLQMNSLRAEDTAVYYCAGGGDILTGDYWGQGTLVTVSS VL: DIQMTQSPSSLSASVGDRVTITCRASQGIRNDLGWYQQKPGKAPKRLIYAASSLQSGVPSRFSGSGSGTEFTLTISSLQPEDFATYYCLQYKSYLYTFGQGTKLEIK"
obsvalue = 7.24

